assay: in vivo; conditions: mouse, brain, sc, 30 mg/kg
Recorded Endpoint: Cmax

Endpoint output: Cmax of Cc1ccc(C(=O)NCCCCCC(=O)Nc2ccc(F)cc2N)cc1 [RGFP136] . Value?
~1700 nM
